In this section we review reported T/C values for a set of molecules.
# Tested on: L1210 leukemia ip in BDF1 mice, survival T/C
# EXPERIMENT SUMMARY: NCI In Vivo Anticancer Drug Screen. Data for tumor model L1210 Leukemia (intraperitoneal) in B6D2F1 (BDF1) mice
# CONDITION SUMMARY: endpoint: mean survival time; dose: 400.0 mg/kg/injection; schedule: Q04DX002 (ip); vehicle: saline with Tween-80; higher = longer survival
Inconclusive results and toxic doses are left out.
MEASUREMENT KIND: T/C

[[record]]
molecule = "CCCCC(CCCC)(C(=O)OCC)C(=O)OCC"
result = "94 % of control"

[[record]]
molecule = "Cc1ccc2[nH]c(=S)n(-c3ccccc3)c(=O)c2c1"
result = "91 % of control"

[[record]]
molecule = "CCOC(=O)c1ccc(Nc2sc(C(=O)c3ccccc3)c(N)c2C#N)cc1"
result = "89 % of control"

[[record]]
molecule = "CCSCCOP(=S)(N(CC)CC)N(CC)CC"
result = "104 % of control"

[[record]]
molecule = "CCC1(c2ccccc2)C(=O)NC(=O)N(Cc2ccccc2)C1=O (stereo unspecified)"
result = "103 % of control"

[[record]]
molecule = "CCCCOP(=S)(N1CCCCC1)N1CCCCC1"
result = "107 % of control"


* * *

# Test system: L1210 leukemia ip in BDF1 mice, survival T/C
# EXPERIMENT SUMMARY: NCI In Vivo Anticancer Drug Screen. Data for tumor model L1210 Leukemia (intraperitoneal) in B6D2F1 (BDF1) mice
# CONDITION SUMMARY: endpoint: mean survival time; dose: 200.0 mg/kg/injection; schedule: Q01DX009 (ip); vehicle: Klucel (hydroxypropylcellulose) (HPC); higher = longer survival
# Method: The antitumor activity of compounds was measured in mice bearing transplantable tumors. Survival or tumor size were measured and the results are expressed as the measurement made in the treated group (T) divided by the measurement made in the vehicle treated control group (C). The tumor model used in this assay is L1210 Leukemia (intraperitoneal) in B6D2F1 (BDF1) mice
Inconclusive results and toxic doses are left out.
MEASUREMENT KIND: T/C

[[record]]
molecule = "CCOC(=O)c1cnc2c(ccc3cc(OC)ccc32)c1NCCCN(CC)CC"
target = "L1210 leukemia ip in BDF1 mice, survival T/C"
result = "94 % of control"

[[record]]
molecule = "CSc1ccc(/C=C/c2ccc([N+](=O)[O-])cc2)cc1"
target = "L1210 leukemia ip in BDF1 mice, survival T/C"
result = "88 % of control"

[[record]]
molecule = "O=C(CCCl)N1CCN(C(=O)CCCl)CC1"
target = "L1210 leukemia ip in BDF1 mice, survival T/C"
result = "108 % of control"

[[record]]
molecule = "COc1cc(N(CCCl)CCCl)ccc1/C=N\\NC(=O)c1cccnc1"
target = "L1210 leukemia ip in BDF1 mice, survival T/C"
result = "96 % of control"

[[record]]
molecule = "COC(=O)C(C(=O)Oc1ccc([N+](=O)[O-])cc1)c1ccccc1 (stereo not given)"
target = "L1210 leukemia ip in BDF1 mice, survival T/C"
result = "102 % of control"

[[record]]
molecule = "CCCOC(=O)COc1ccc(Cl)cc1"
target = "L1210 leukemia ip in BDF1 mice, survival T/C"
result = "95 % of control"

[[record]]
molecule = "COc1ccc(NC(=O)Nc2ccc(Cl)cc2)cc1"
target = "L1210 leukemia ip in BDF1 mice, survival T/C"
result = "98 % of control"

[[record]]
molecule = "Cc1cc(C)c(NC(=O)Nc2cccc(F)c2)c(C)c1"
target = "L1210 leukemia ip in BDF1 mice, survival T/C"
result = "105 % of control"

[[record]]
molecule = "CC(C)(C)C1CCC(=O)C(Cl)C1 (stereo not given)"
target = "L1210 leukemia ip in BDF1 mice, survival T/C"
result = "95 % of control"

[[record]]
molecule = "CC(C)OC(=O)Oc1cccc2c1C(=O)c1ccccc1C2=O"
target = "L1210 leukemia ip in BDF1 mice, survival T/C"
result = "91 % of control"

[[record]]
molecule = "CCCCN(C)N=Nc1ccccc1C(N)=O"
target = "L1210 leukemia ip in BDF1 mice, survival T/C"
result = "115 % of control"

[[record]]
molecule = "CCOc1ccc(NC(=O)C(Br)C(Br)c2ccccc2)cc1 (stereo not given)"
target = "L1210 leukemia ip in BDF1 mice, survival T/C"
result = "96 % of control"

[[record]]
molecule = "O=[N+]([O-])c1ccc(NC(=S)NS(=O)(=O)c2ccccc2)c(Cl)c1"
target = "L1210 leukemia ip in BDF1 mice, survival T/C"
result = "97 % of control"

[[record]]
molecule = "CC(=O)c1cccc(NC(=O)Oc2ccc(Cl)cc2Cl)c1"
target = "L1210 leukemia ip in BDF1 mice, survival T/C"
result = "110 % of control"

[[record]]
molecule = "CC(=O)c1cccc(NC(=O)N(C)Cc2ccccc2)c1"
target = "L1210 leukemia ip in BDF1 mice, survival T/C"
result = "100 % of control"

[[record]]
molecule = "O=[N+]([O-])c1ccc(C(Br)C(Br)c2ccccc2Cl)cc1 (stereo not given)"
target = "L1210 leukemia ip in BDF1 mice, survival T/C"
result = "98 % of control"

[[record]]
molecule = "CC(=O)c1cccc(NC(=O)Nc2nccs2)c1"
target = "L1210 leukemia ip in BDF1 mice, survival T/C"
result = "104 % of control"

[[record]]
molecule = "COC1=C(NCc2ccccc2)C(=O)C(OC)=C(NCc2ccccc2)C1=O"
target = "L1210 leukemia ip in BDF1 mice, survival T/C"
result = "95 % of control"

[[record]]
molecule = "Cc1cccc(C)c1OC(=O)NCCCCCCNC(=O)Oc1c(C)cccc1C"
target = "L1210 leukemia ip in BDF1 mice, survival T/C"
result = "92 % of control"

[[record]]
molecule = "FC(F)(F)c1cccc(NC(=S)NCc2ccco2)c1"
target = "L1210 leukemia ip in BDF1 mice, survival T/C"
result = "93 % of control"

[[record]]
molecule = "Cc1cc2[nH]c(=O)c(=O)[nH]c2cc1C"
target = "L1210 leukemia ip in BDF1 mice, survival T/C"
result = "100 % of control"

[[record]]
molecule = "CCCCCCCCCCCCCCCCCCCC/C=C/C1CC(=O)OC1=O (stereo not given)"
target = "L1210 leukemia ip in BDF1 mice, survival T/C"
result = "96 % of control"

[[record]]
molecule = "Cc1ccc(S(=O)(=O)N/N=C/N(C)C)cc1"
target = "L1210 leukemia ip in BDF1 mice, survival T/C"
result = "98 % of control"

[[record]]
molecule = "COc1ccc(Cl)cc1NC(=O)c1ccco1"
target = "L1210 leukemia ip in BDF1 mice, survival T/C"
result = "87 % of control"

[[record]]
molecule = "Cc1c(Cl)cccc1NC(=O)Sc1ccc(C(C)(C)C)cc1"
target = "L1210 leukemia ip in BDF1 mice, survival T/C"
result = "90 % of control"

